- assayMethodText: Toxicity liver stage against HepG2, at 10uM
- Format: cell-based
- Design: test concentration 10 uM, cell line HepG2-A16-CD81EGFP
- assaySetup: human, HepG2-A16-CD81EGFP cells; read-out: INHIBITION
observable: cytotoxicity at 10 µM (%)

>  <compound>
Cc1nc2cc(=O)[nH]n2c(C)c1CNC(=O)C(C)Cc1ccccc1 (centres undefined)

>  <observed>
-7.27

$$$$
>  <compound>
COCc1nn(C)c2c1CCN(Cc1cnn(C)c1)C2

>  <observed>
-4.37

$$$$
>  <compound>
CN(C)Cc1ccccc1Cn1cncc1-c1cnn(C)c1

>  <observed>
6.16

$$$$
>  <compound>
Cc1cc(=O)[nH]c(SC(C)C(=O)N2CCC(c3ncc[nH]3)CC2)n1 (centres undefined)

>  <observed>
-16.2

$$$$
>  <compound>
COc1ccccc1CC1CCCN(C(=O)c2cc[nH]n2)C1 (centres undefined)

>  <observed>
6.11

$$$$
>  <compound>
Cc1cc(CN2CCCC(NS(C)(=O)=O)C2)ccc1-n1cncn1 (centres undefined)

>  <observed>
3.78

$$$$
>  <compound>
COCC(=O)NC1CC2(CCN(CCF)CC2)Oc2ccccc21 (centres undefined)

>  <observed>
-0.864

$$$$
>  <compound>
C[S+]([O-])c1ccc(NC(=O)Cc2cccnc2)cc1F (centres undefined)

>  <observed>
-4.26

$$$$
>  <compound>
Cc1cc(-n2nc(C)nc2-c2cn(CCN)nn2)ccn1

>  <observed>
7.55

$$$$
>  <compound>
CC(C)N(CCCNC(=O)C1CC(=O)N(C)C1)S(C)(=O)=O (centres undefined)

>  <observed>
8.35

$$$$
>  <compound>
O=c1[nH]nc(SCC2CCCCO2)n1C1CC1 (centres undefined)

>  <observed>
2.14

$$$$
>  <compound>
CCCS(=O)(=O)CCN1CCN(c2cc(F)ccc2F)CC1

>  <observed>
-10

$$$$
>  <compound>
O=C(Cc1ccc2c(c1)OCC2)Nc1nc(C(F)(F)F)n[nH]1

>  <observed>
2.98

$$$$
>  <compound>
CCc1ccc(NS(=O)(=O)c2cc3c(c(C(=O)O)c2)OCCO3)cc1

>  <observed>
-13.9

$$$$
>  <compound>
Cc1nc(CN2CCOC(c3nc(C(C)C)n[nH]3)C2)oc1C (centres undefined)

>  <observed>
-7.98

$$$$
>  <compound>
CC(NC(=O)Cn1cccn1)c1ccc2c(c1)OCCO2 (centres undefined)

>  <observed>
-2.23

$$$$
>  <compound>
O=C(c1cc2cc(F)ccc2[nH]1)N1CCC(Nc2ccc(F)cc2)CC1

>  <observed>
-7.36

$$$$
>  <compound>
CN(C)C(=O)CNC(=O)c1nc(C2CC2)n(-c2ccccc2Cl)n1

>  <observed>
-2.03

$$$$
>  <compound>
CCC(CNC1CCN(C(C)=O)CC1)Oc1ccccc1Cl (centres undefined)

>  <observed>
-13.4

$$$$
>  <compound>
CC(C)(C)n1cc(CNC2CCN(C(=O)c3ccco3)CC2)cn1

>  <observed>
-8.08

$$$$
>  <compound>
Cc1c(C2CC2)n[nH]c1NC(=O)C1CCCN(C(=O)NCC(C)C)C1 (centres undefined)

>  <observed>
13.9

$$$$
>  <compound>
CCn1cnnc1CNC(=O)N(C)Cc1ccc2c(c1)OCCO2

>  <observed>
-1.96

$$$$
>  <compound>
N[C@@H]1CC[C@H](C(=O)NCc2ccc3nonc3c2)C1

>  <observed>
-5.35

$$$$
>  <compound>
CN(C)C(=O)COC[C@]12COC[C@H]1CN(CC1CCC1)C2

>  <observed>
-6.07

$$$$
>  <compound>
O=c1oc(-c2ccc(F)cc2)nn1CN1CCSCC1

>  <observed>
0.449

$$$$
>  <compound>
CC(OCC1CC1)C(=O)N1CCCN(Cc2nccn2C(C)C)CC1 (centres undefined)

>  <observed>
-11.9

$$$$
>  <compound>
COCc1nc(C(=O)NS(=O)(=O)c2ccc(C)c(C)c2)cs1

>  <observed>
-8

$$$$
>  <compound>
CC(c1nccs1)N(C)S(=O)(=O)NCc1ccccc1 (centres undefined)

>  <observed>
-2.34

$$$$
>  <compound>
COc1ccc(CC(=O)N(C)Cc2nnc3ccccn23)cc1

>  <observed>
5.44

$$$$
